- experiment_notes: Cell Titer-Glo Cell Viability Assay, genotype 1b cells
- Type: cell-based
- condition_description: human, Huh-Luc-Neo (HCV genotype 1b replicon) cells, HCV genotype 1b assays, read-out: Cytotoxicity* (CC50)
reported_property: CC50 at 72 h

Cc1ccc(O)c(-c2nn(C)cc2C#Cc2ccc(NC(=O)[C@H]3CCCCN3C(=O)[C@H](Cc3ccccc3)NC(=O)OC(C)(C)C)cc2)c1 [Compound 2] :: > 100 µM
CCOC(=O)c1ccc(O)c(-c2nn(C)cc2C#Cc2ccc(NC(=O)[C@@H]3CCCCN3C(=O)[C@H](NC(=O)OC(C)(C)C)c3ccccc3)cc2)c1 [Compound 30] :: > 100 µM
Cc1ccc(O)c(-c2nn(C)cc2C#Cc2ccc(NC(=O)C3CCCCN3C(=O)[C@H](Cc3ccc(C(N)=O)cc3)NC(=O)OC(C)(C)C)cc2)c1 (stereo partly shown) [Compound 24] :: 10 to 100 µM
Cn1cc(C#Cc2ccc(NC(=O)[C@@H]3CCCCN3C(=O)[C@H](NC(=O)OC(C)(C)C)c3cccs3)cc2)c(-c2cc(Br)ccc2O)n1 [Example 48] :: > 100 µM
Cn1cc(C#Cc2ccc(NC(=O)[C@@H]3COCCN3C(=O)[C@H](NS(=O)(=O)C3CC3)c3ccccc3)cc2)c(-c2cc(Cl)ccc2O)n1 [Compound 55] :: 10 to 100 µM
Cc1ccc(O)c(-c2nn(C)cc2C#Cc2ccc(NC(=O)[C@@H]3CCCCN3C(=O)[C@H](NC(=O)OC(C)(C)C)c3ccccc3)cc2)c1 [Compound 16] :: > 100 µM
Cc1ccc(O)c(-c2nn(C)cc2C#Cc2ccc(NC(=O)[C@H]3CS(=O)(=O)CCN3C(=O)[C@H](NC(=O)OC(C)(C)C)c3ccccc3)cc2)c1 [Compound 46 (Table 1)] :: > 100 µM
Cc1ccc(O)c(-c2nn(C)cc2C#Cc2ccc(NC(=O)C3CCCCN3C(=O)[C@H](Cc3ccc(F)cc3)NC(=O)OC(C)(C)C)cc2)c1 (stereo partly shown) [Compound 5] :: > 100 µM

For every item in the list below, what is its measured CC50 at 72 h?
1. Cc1ccc(O)c(-c2nn(C)cc2C#Cc2ccc(NC(=O)[C@H]3CCCCN3C(=O)C(NC(=O)OC(C)(C)C)c3ccccc3)cc2)c1 (stereo partly shown) [64 (Table 1)]
2. Cn1cc(C#Cc2ccc(NC(=O)[C@@H]3COCCN3C(=O)[C@H](NC(=O)C3CC3)c3ccccc3)cc2)c(-c2cc(Cl)ccc2O)n1 [Compound 52]

1: > 100 µM; 2: 10 to 100 µM

Just for reference, patent US7923004B2 is where these values come from.
